Where do the numbers come from? From the supplement of paper PMC10567573.

Catalogue of sequences with associated protein stability index
assay_details: protein stability index of a GFP-peptide fusion (GPS, HEK-293T) (PSI 1-6); higher = more stable;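 further: 24-mer peptide tiles fused after GFP, lentivirally expressed, FACS-sorted into six equal bins by GFP/DsRed ratio, decoded by Illumina sequencing, PSI is the read-weighted mean bin number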
conditions: treatment: MLN4924 1 uM, 8 h; c terminus: a fixed tail appended
Format: numeric value only, no unit, no commentary.

Here's what some known entries look like.
GSSSDNRTYRYSNRYCGGPGPPIT [DYRK1B] | 2.75
YYPRVQHYRELLDSLPMDAYTHGC [GDAP1] | 2.32
GNFDWEAIFDAGTLGGELGALEAL [FOXJ1] | 4.17

Entry under review: MALPFFSLAEVRVGYQSQNISCFF [MYORG] . Reported protein stability index? 3.11

Record: LYNMDLSDDHIRVIVQLHKLRHLD [ZER1] 2.56

Param item: KDGKNWNSNQATDIMETSGWKSMI [SPOPL] 3.54

What about this sequence? HQDVPSQDDSKPTQRQFTILNFND [AASDHPPT] 4.76

Also check AVHLCNALVCQVDNDHKEAVGKMG [ZER1] 3.77

And for MRPPMPPHGQYGGHHQGMPGYLPG [ZNF207] ? 3.29

Now this one: EGSLEWDILEVKRLLDHQDNILSL [WDR41] 2.53

====

Collected protein stability index values appear next to each entry.
assay_details: protein stability index of a GFP-peptide fusion (GPS, HEK-293T) (PSI 1-6); higher = more stable
conditions: treatment: DMSO; c terminus: a fixed tail appended
Give your answer as a number; write no unit.

SYLHAKKYLKPSGNMFPTIGDVHL [CARM1] | 2.35
SSTSGGSGYGFRPSMVSGGYVANS [KRT71] | 3.29
GVDPQQKMELGIDLLAYGAKAELP [MYOZ1] | 3.95
KDGKNWNSNQATDIMETSGWKSMI [SPOPL] | 3.38
VTSFDSVVPEKLDDLVPKGKKFLL [ALG2] | 3.32

Turning to the following sequence.
// protein stability index lookup, key: LEALIDTIQKQLKDHSCKDNIREA [EFHC1] 3.55

====

assay_details: protein stability index of a GFP-peptide fusion (GPS, HEK-293T) (PSI 1-6); higher = more stable
conditions: treatment: DMSO; c terminus: a fixed tail appended
Decision: protein stability index compared against 4; not below it gives Y, below it gives N.

DEDLDLIPPKSVNPTCMCCQATSS [FAM219A] | Y
DALQRYGTSHGAPPARGPRMSYGG [RBMY1A1] | N
QLEEKLEIANEDRKHALERFEQEA [CCDC89] | Y
ESVADLLALEEPVDYKQSVLNVAG [SLC6A17] | Y
YTSPDKLKDIFMFITRQLKGLEDT [PDS5B] | N

Hi, just wondering whether AERRRAGRLLLTLPLLRQTAGKVL [ESRRA] shows protein stability index of 4 or higher. N

Moving on to LGLRSLIPAVLTVSMLGYPFILPD [MYORG] N

// next record LMHIAHIAELLEVFDLRMMVANIL [RHOBTB2] N

Item: YSKTWTKQPDLTMVRKIGCYAAMK [GAN] N

Now consider MTWSPLACGIVSGKYDSGIPPYSR [KCNAB2] and answer again. N
